Test system: SNB-75 CNS
Assay remarks: NCI-60 one-dose screen, 48 h
Setup conditions: 10 µM unless noted
Description: Growth inhibition of the SNB-75 human tumor cell line is measured as a screen for anti-cancer activity. Cells are grown in 96 well plates and exposed to the test compound for 48 hours. Compounds are tested at a single concentration, which is 10^-5 M for most compounds. The reported endpoint is percent growth (GI% or GIPRCNT), where numbers from 0 - 100% represent growth inhibition, and numbers from -100% - 0 represent cell death. For example, a value of 40 represents 60% growth inhibition. […]
This is part of a sample that, as a whole, favours compounds with a hit. Of some 83,000 tested, about 20% had one in any assay. Activity calls are given as the source filed them. Rule for the calls: active = growth percent below 10; inactive = the rest.
Allowed answers: Yes for active, No for inactive

In [3]: df
Out[3]:
                               entry_smiles  qualitative_label
0  COc1cc(OC)cc(C(=O)Nc2cc(-c3cccnc3)nc(NCCCN3CCOCC3)n2)c1                 No
1       CCCCCN(CCCCC)CCCCCCCCN1CCCc2ccccc21                 No
2  CCn1cc(-c2ccnc(NCCNS(=O)(=O)c3cccc4ccccc34)c2)c(-c2cccc(O)c2)n1                 No
3  CC1(C)CC[C@]2(C(=O)O)CC[C@]3(C)[C@H](CC[C@@H]4[C@@]5(C)CCC(=O)C(C)(C)[C@@H]5CC[C@]43C)[C@H]2[C@H]1OC(=O)C(F)(F)F                Yes
4  O=C(O)CSCc1nnc2n(Cc3ccccc3)c(=O)c3c4c(sc3n12)CCCC4                 No

Query: recorded result category for Cc1nc(-c2ccccc2)sc1CC#N in this test
No

====

Listed compounds paired with reported growth
System: EKVX NSCLC
Assay remarks: NCI-60 one-dose screen, 48 h (100 = growth as untreated, 0 = no growth, -100 = all killed)
Setup conditions: 10 µM unless noted
Compounds without any hit were thinned out: in the full panel of roughly 83,000, 20% have a hit. Activity calls are given as the source filed them. Rule for the calls: active = growth percent below 10; inactive = the rest.

>>> print(df.to_string())
                                   compound            result
0       CCCCCCNC(=O)Nc1ncnc2c1ncn2-c1ccccc1  92.2% (inactive)
1  O=C1CC(C(F)(F)F)Cc2nc3ccc(Br)cc3cc21 (stereo not drawn)    81% (inactive)

Any idea what growth was measured for COc1ccc(/C=C(/C(=O)c2ccc(Cl)cc2)C(=O)C(F)(F)F)cc1 ?
92.5% (inactive)

Can you check O=C(NNc1ccc(-c2ccccc2)nn1)c1ccc(F)cc1 next?
78.4% (inactive)

====

System: NCI-H522 lung
Assay remarks: NCI-60 one-dose screen, 48 h (100 = growth as untreated, 0 = no growth, -100 = all killed)
Setup conditions: 10 µM unless noted
The panel holds about 83,000 compounds, 20% with a hit somewhere; the sample as a whole holds those more often. Activity calls are given as the source filed them. How the source made its calls: active means growth percent below 10; inactive means the rest.
Assay endpoint: growth

Worked cases, growth given:
Molecule	growth
COc1ncnc2c(-c3ccccc3)cn(COCc3ccccc3)c12	36.2% (inactive)
Nc1ccc(Cl)c([N+](=O)[O-])c1	87.5% (inactive)

Any idea what growth was measured for CCOC(=O)c1c[nH]c2cc(OCC3CC3)c(OCC3CC3)cc2c1=O ?
95.5% (inactive)

Can you check C=C(C)[C@@H]1CC[C@]2(COC(=O)c3ccccc3C(=O)O)CC[C@]3(C)[C@H](CC[C@@H]4[C@@]5(C)CC[C@H](OC(=O)c6ccccc6C(=O)O)C(C)(C)[C@@H]5CC[C@]43C)[C@@H]12 next?
46.8% [100 µM] (inactive)

Can you check Cc1cc(-c2ccc(N=Nc3c(S(=O)(=O)O)cc4cc(S(=O)(=O)O)cc(N)c4c3O)c(C)c2)ccc1N=Nc1cc(S(=O)(=O)O)c2ccccc2c1O next?
101% (inactive)

Can you check CCN(CC)c1ccc2cc(C(Nc3ccc(Br)c(C(F)(F)F)c3)c3nnnn3C(C)(C)C)c(=O)oc2c1 (configuration not stated) next?
77.9% (inactive)

Can you check COc1ccc(C(=O)/C=C/c2ccccn2)c(O)c1 next?
69.4% (inactive)

====

System: NCI-H322M lung
Assay remarks: NCI-60 one-dose screen, 48 h
Setup conditions: 10 µM unless noted
Compounds without any hit were thinned out: in the full panel of roughly 83,000, 20% have a hit. Active and inactive are the calls of the source. The calls were made as follows: active = growth percent below 10; inactive = the rest.
Allowed answers: t for active, f for inactive

Examples with answers:
Compound	Qualitative label
CC(C)=CC/C=C(/C)[C@H]1CC[C@]2(C)[C@@H]1CC[C@@H]1[C@@]3(C)CCCNC(C)(C)[C@@H]3CC[C@]12C	t
COc1cc(OC)c(/C=C/C(=O)c2c(N)cc(OC)cc2OC)c(OC)c1	f

Query: recorded result category for O=C1CC(c2ccccc2)Cc2nc3ccc(Br)cc3cc21 (configuration not stated) in this test
f

Can you check C#C[C@]1(O)CC[C@H]2[C@@H]3CC=C4c5nc(Nc6ccccn6)sc5CC[C@]4(C)[C@H]3CC[C@@]21C next?
f

Can you check COc1ccc2c(c1)c(-c1noc(-c3cn(C)c4ncc(F)cc34)n1)cn2C next?
f

Can you check CCOC(=O)c1nn(C2CCCCO2)c2ccc(NC(=O)CSc3nc4ccccc4c(=O)[nH]3)cc12 (configuration not stated) next?
f

====

System: SR leukemia
Assay remarks: NCI-60 one-dose screen, 48 h
Setup conditions: 10 µM unless noted
Compounds without any hit were thinned out: in the full panel of roughly 83,000, 20% have a hit. The source made the active and inactive calls. The calls were made as follows: active = growth percent below 10; inactive = the rest.
Allowed answers: Y for active, N for inactive

>>> df
                                   compound  qualitative_label
0    C[n+]1c(-c2ccccc2)c2cc(N)ccc2c2ccccc21                  N
1  O=C1/C(=C/c2cccc(OCc3ccccc3)c2)Oc2cc(OCCN3CCCCC3)ccc21                  Y

Query: recorded result category for COc1cc2c(cc1OC(C)=O)C(=O)CCCC2 in this test
N

Can you check CCN(CC)c1ccc2cc(C(Nc3ccc(Cl)cc3)c3nnnn3C(C)(C)C)c(=O)oc2c1 (stereo not drawn) next?
N

====

Test system: SN12C renal
Assay remarks: NCI-60 one-dose screen, 48 h (100 = growth as untreated, 0 = no growth, -100 = all killed)
Setup conditions: 10 µM unless noted
The panel holds about 83,000 compounds, 20% with a hit somewhere; the sample as a whole holds those more often.
Listed compounds paired with reported growth
Reply with just the number (in %).

Worked cases, growth given:
                                   compound  assay_endpoint  number
0  CCOC(=O)C(c1ccccc1)N1C(=O)c2ccccc2C1=O (centres undefined)          growth     104
1                           NC(=S)Cc1ccccc1          growth    94.7
2  COc1ccc(/C=C/C(=C/c2c(O)[nH]c3cc(Br)ccc23)N=O)cc1          growth     102
3  Cc1ccc(-c2cc(-c3ccc(C)cc3)nc(NCCNc3ccnc4cc(Cl)ccc34)n2)cc1          growth   -88.3
4  O=C(COc1cccc(/C=C2\Oc3ccccc3C2=O)c1)c1ccc([N+](=O)[O-])cc1          growth    92.6

Request: growth, test system SN12C renal, entry CNc1cc(C(=O)O)nc(NC)n1
95.1

Can you check C[n+]1cccc(NC(=O)c2ccc3ccc4ccc(C(=O)Nc5ccc[n+](C)c5)nc4c3n2)c1 next?
-14.8

====

System: HT29 colon
Assay remarks: NCI-60 one-dose screen, 48 h
Setup conditions: 10 µM unless noted
The panel holds about 83,000 compounds, 20% with a hit somewhere; the sample as a whole holds those more often. Active and inactive are the calls of the source. How the source made its calls: active means growth percent below 10; inactive means the rest.
Allowed answers: true (active), false (inactive)

Examples with answers:
>>> df
                                   molecule  qualitative_label
0    Cc1ccc(NCCN2CCCCC2)c2c(=O)c3ccccc3sc12              false
1  O=C1CC(c2ccc3c(c2)OCO3)Nc2ccccc21 (stereo not drawn)               true

Moving on to the next molecule.
Query: recorded result category for CCCN1CC(c2ccc(OC)c(OC)c2)=C(c2cn(C(=O)OCC)c3ccccc23)C1=O in this test
false

====

Tested on: OVCAR-3 ovarian
Assay remarks: NCI-60 one-dose screen, 48 h
Setup conditions: 10 µM unless noted
About 83,000 compounds went through this panel and 20% of them were active in at least one assay; those are over-represented in the sample as a whole. Activity calls are given as the source filed them. How the source made its calls: active means growth percent below 10; inactive means the rest.
Allowed answers: active, inactive

Examples with answers:
>>> df
                                   molecule  qualitative_label
0  CCOC(=O)c1nn(C2CCCCO2)c2ccc(NC(=O)CSc3nc4ccccc4c(=O)[nH]3)cc12 (configuration not stated)           inactive
1  CCN(CC)c1cc(N)c(Cc2c(N)cc(N(CC)CC)cc2Cl)c(Cl)c1           inactive
2  O=[N+]([O-])c1cccc(N=NNc2cccc([N+](=O)[O-])c2)c1           inactive
3                  Oc1ccc(N=Nc2nccs2)c(O)c1             active
4  O=c1[nH]c(CN2CCN(c3cccc(Cl)c3)CC2)nc2cc(Cl)ccc12           inactive

Query: recorded result category for CCCCN(CC)CC(CC)Nc1cc(OC)cc2cccnc12 (configuration not stated) in this test
inactive

Can you check COc1ccc(/C=C(/C2=NCCN2)n2ccc3ccccc32)cc1 next?
inactive
